Reported values of inhibition for individual entries
molecular target: Telomerase reverse transcriptase (Homo sapiens) (UniProt O14746); experiment: Inhibition of telomerase in human HepG2 cells at 4 uM after 2 days by TRAP-ELISA method; assay type: cell-based
Sequence (O14746 whole entry): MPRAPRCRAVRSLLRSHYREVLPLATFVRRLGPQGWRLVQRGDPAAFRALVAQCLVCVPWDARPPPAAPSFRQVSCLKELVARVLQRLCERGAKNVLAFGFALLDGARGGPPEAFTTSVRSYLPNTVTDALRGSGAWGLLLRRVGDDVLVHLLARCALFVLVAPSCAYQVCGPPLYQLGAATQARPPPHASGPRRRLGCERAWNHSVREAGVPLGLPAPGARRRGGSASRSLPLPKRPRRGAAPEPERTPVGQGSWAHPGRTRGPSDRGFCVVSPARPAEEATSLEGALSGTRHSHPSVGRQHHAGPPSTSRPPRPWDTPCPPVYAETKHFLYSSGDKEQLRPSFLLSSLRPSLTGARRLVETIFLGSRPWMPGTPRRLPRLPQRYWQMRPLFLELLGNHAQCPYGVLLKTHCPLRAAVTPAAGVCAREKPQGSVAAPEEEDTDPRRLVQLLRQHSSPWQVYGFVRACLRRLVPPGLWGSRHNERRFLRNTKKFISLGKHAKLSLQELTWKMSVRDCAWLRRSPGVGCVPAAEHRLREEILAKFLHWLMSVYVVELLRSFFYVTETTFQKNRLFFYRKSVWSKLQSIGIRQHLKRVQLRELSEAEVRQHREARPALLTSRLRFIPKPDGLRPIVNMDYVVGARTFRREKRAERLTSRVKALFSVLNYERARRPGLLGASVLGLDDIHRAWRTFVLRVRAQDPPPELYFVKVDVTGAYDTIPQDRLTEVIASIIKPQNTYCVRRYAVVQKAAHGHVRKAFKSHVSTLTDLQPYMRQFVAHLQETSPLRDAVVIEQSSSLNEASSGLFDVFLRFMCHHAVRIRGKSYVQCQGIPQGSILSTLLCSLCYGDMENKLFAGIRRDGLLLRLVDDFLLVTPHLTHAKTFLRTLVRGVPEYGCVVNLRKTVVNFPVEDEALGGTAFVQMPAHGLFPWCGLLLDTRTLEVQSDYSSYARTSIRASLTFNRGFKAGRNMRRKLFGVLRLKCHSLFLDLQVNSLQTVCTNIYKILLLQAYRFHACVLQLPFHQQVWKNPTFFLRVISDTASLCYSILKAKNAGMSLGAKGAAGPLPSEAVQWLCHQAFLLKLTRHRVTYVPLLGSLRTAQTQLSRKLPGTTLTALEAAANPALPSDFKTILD

{"columns": ["COMPOUND", "TESTED_ON", "inhibition (%)"],
 "data": [
  ["COc1ccc2ccc(=O)oc2c1C1=NN(c2ccccc2)C(c2cccs2)C1 (stereo unspecified)", "Telomerase reverse transcriptase (Homo sapiens) (UniProt O14746)", 56.6],
  ["CN[C@@H]1C[C@H]2O[C@@](C)([C@@H]1OC)n1c3ccccc3c3c4c(c5c6ccccc6n2c5c31)C(=O)NC4", "Telomerase reverse transcriptase (Homo sapiens) (UniProt O14746)", 40.1],
  ["COc1ccc2ccc(=O)oc2c1C1=NNC(c2ccc(C(F)(F)F)cc2)C1 (stereo unspecified)", "Telomerase reverse transcriptase (Homo sapiens) (UniProt O14746)", 59],
  ["COc1ccc2ccc(=O)oc2c1C1=NNC(c2ccc(SC)cc2)C1 (stereo unspecified)", "Telomerase reverse transcriptase (Homo sapiens) (UniProt O14746)", 65.2],
  ["COc1ccc2ccc(=O)oc2c1C1=NN(C(N)=O)C(c2ccc(SC)cc2)C1 (stereo unspecified)", "Telomerase reverse transcriptase (Homo sapiens) (UniProt O14746)", 51.2],
  ["COc1ccc2ccc(=O)oc2c1C1=NNC(c2cccs2)C1 (stereo unspecified)", "Telomerase reverse transcriptase (Homo sapiens) (UniProt O14746)", 62.6]
]}

###

target: Telomerase reverse transcriptase (Homo sapiens); assay: Inhibition of telomerase in human HepG2 cells at 1 uM after 1 day by TRAP-ELISA method; type: cell-based
Listed here: items and their measured inhibition.

{"columns": ["COMPOUND", "inhibition, %"],
 "data": [
  ["COc1ccc2ccc(=O)oc2c1C1=NN(c2ccccc2)C(c2cccs2)C1 (stereo unspecified)", 16.8],
  ["COc1ccc2ccc(=O)oc2c1C1=NNC(c2cccs2)C1 (stereo unspecified)", 18.6],
  ["COc1ccc2ccc(=O)oc2c1C1=NN(C(N)=O)C(c2ccc(SC)cc2)C1 (stereo unspecified)", 15.2],
  ["CN[C@@H]1C[C@H]2O[C@@](C)([C@@H]1OC)n1c3ccccc3c3c4c(c5c6ccccc6n2c5c31)C(=O)NC4", 10.7],
  ["COc1ccc2ccc(=O)oc2c1C1=NNC(c2ccc(SC)cc2)C1 (stereo unspecified)", 19.4],
  ["COc1ccc2ccc(=O)oc2c1C1=NNC(c2ccc(C(F)(F)F)cc2)C1 (stereo unspecified)", 17.5]
]}

###

inhibition by entry:
target: Telomerase reverse transcriptase (Homo sapiens) (UniProt O14746); experiment: Inhibition of telomerase in human HepG2 cells at 2 uM after 3 days by TRAP-ELISA method; type: cell-based

{"columns": ["COMPOUND", "inhibition / %"],
 "data": [
  ["COc1ccc2ccc(=O)oc2c1C1=NN(C(N)=O)C(c2ccc(SC)cc2)C1 (stereo unspecified)", 36.5],
  ["COc1ccc2ccc(=O)oc2c1C1=NNC(c2ccc(SC)cc2)C1 (stereo unspecified)", 46.4],
  ["COc1ccc2ccc(=O)oc2c1C1=NN(c2ccccc2)C(c2cccs2)C1 (stereo unspecified)", 40.3],
  ["COc1ccc2ccc(=O)oc2c1C1=NNC(c2cccs2)C1 (stereo unspecified)", 44.6],
  ["CN[C@@H]1C[C@H]2O[C@@](C)([C@@H]1OC)n1c3ccccc3c3c4c(c5c6ccccc6n2c5c31)C(=O)NC4", 28.7],
  ["COc1ccc2ccc(=O)oc2c1C1=NNC(c2ccc(C(F)(F)F)cc2)C1 (stereo unspecified)", 42]
]}
